endpoint name: melting point (°C)

INSERT INTO measurements (molecule, unit_descriptor, numeric_value) VALUES
  ('CN(c1cccc2cc(C3=NCC4(CCN(CCO)CC4)S3)[nH]c12)S(=O)(=O)c1cccs1', '°C', 214);

(A) CC1(C)CC(n2cncc2C(=O)O)c2ccccc2O1 (stereo not given)
(B) CCN(CC)CCOc1ccc(Nc2ncc3c(n2)N(C)C(=O)N(c2c(Cl)cc(Cl)cc2Cl)C3)cc1
[ask] // compare measured melting point between A and B ; output the lower one The response must carry the label of the picked entry.
[reply] B
(B: 142 °C, A: 246 °C)

----------
endpoint name: melting point

Solved cases below.
INSERT INTO results (molecule, result) VALUES
  ('O=C(O)c1cccc(OCCF)c1OCCF', '104 to 105 °C'),
  ('c1cc2c(cc1C1CCC3(CC1)OCCO3)OCO2', '115 to 116 °C'),
  ('CC(Sc1nc(N)cc(Cl)n1)c1cc2ccoc2cn1 (stereo unspecified)', '187 to 188 °C'),
  ('CCCCCCCCc1ccc(C(=O)CCCCC(=O)O)cc1', '96 to 97 °C'),
  ('Cc1ccc(OCC(=O)c2cc(C(C)(C)C)c(O)c(C(C)(C)C)c2)c(-n2nc3ccccc3n2)c1', '155 to 157 °C'),
  ('O=[N+]([O-])c1cc2nc(O)c(O)nc2c2nonc12', '> 300 °C');

[ask] For the molecule CCc1nc2c(ccc3nc(C)c(C)nc32)cc1C , report melting point.
[reply] 137 to 138 °C

[ask] For the molecule ONCc1cccc(I)c1 , report melting point.
[reply] 63 to 70 °C

[ask] For the molecule COc1cc2c(c(N3CCN(C)CC3)c1)OC(C(=O)Nc1ccc(N3CCN(C)CC3)cc1)CC2 (stereo unspecified) , report melting point.
[reply] 180 to 190 °C

[ask] For the molecule CC(=O)SCC(C(=O)Nc1oc(CCC(=O)O)c2ccccc12)C(F)(F)F (stereo unspecified) , report melting point.
[reply] 139 to 140 °C

[ask] For the molecule CC12CCC(O)CC1=CCC1C2CCC2(C)C(c3cccnc3)=CCC12 (stereo unspecified) , report melting point.
[reply] 214 to 218 °C

----------
endpoint name: melting point

Solved cases below.
INSERT INTO assay_data (compound, result) VALUES
  ('Cc1cc(C)cc(NC(=N)Nc2ccccc2C(F)(F)F)c1', '127 °C'),
  ('OC(CCC(O)(C(F)(F)F)C(F)(F)F)(C(F)(F)F)C(F)(F)F', '96 to 98 °C'),
  ('CC(C)n1c(C=O)c(-c2ccc(F)cc2)c(-c2ccc(F)cc2)c1C(=O)O', '228 to 230 °C'),
  ('Cc1ccc2oc(=O)c(C(=O)Oc3cc(F)ccc3F)cc2c1', '155 to 159 °C'),
  ('O=C(O)C1=Cc2cc(Cl)c(Oc3ccccc3)cc2OC1C(F)(F)F (stereo not given)', '220 to 222 °C');

[ask] For the compound CC1(C)OCCC(=O)c2ccccc2NC1=O , report melting point.
[reply] 146 to 148 °C

[ask] For the compound O=C(N[C@H]1C[C@H](C(=O)O)Nc2cc(Cl)cc(Cl)c21)OCc1ccccc1 (relative stereo) , report melting point.
[reply] 169 °C

[ask] For the compound CCC1(O)CCC2C3CCC4=C(CC=C(OC)C4)C3CCC21C (stereo not given) , report melting point.
[reply] 131 to 134 °C

[ask] For the compound Nc1ccc(Oc2c(NCc3ccccc3)cc(C(=O)O)cc2S(N)(=O)=O)cc1 , report melting point.
[reply] 272 °C

[ask] For the compound CSCCOC(=O)N(C)c1nnc(-c2cncc(F)c2)s1 , report melting point.
[reply] 104 to 106 °C
